- Tested System: recombinant eIF4E (Homo sapiens (Human), UniProt P06730)
- Sequence (P06730 whole entry): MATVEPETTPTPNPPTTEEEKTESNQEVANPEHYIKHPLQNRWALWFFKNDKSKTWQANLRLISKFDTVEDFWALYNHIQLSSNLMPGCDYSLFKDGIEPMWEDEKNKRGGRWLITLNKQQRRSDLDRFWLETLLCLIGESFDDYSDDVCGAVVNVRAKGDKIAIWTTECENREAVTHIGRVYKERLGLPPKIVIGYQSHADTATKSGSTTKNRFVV
- Method Notes: Fluorescence polarization competition assay for eIF4E binding potency
- Protocol Conditions: fluorescence polarization competition, 75 nM recombinant eIF4E, 20 nM EDA-m7GDP-ATTO-550; IC50 class; read-out: elF4E FP
pIC50: −log10 of the molar value.
Can you tell me pIC50 for the items I'm about to list?

Record `Cc1ncc(-c2cc(Cl)ccc2OCCn2c(C)nc3cnc(C4CC4)c(C#N)c3c2=O)c2scc(C(=O)O)c12` : what is its pIC50 with recombinant eIF4E (Homo sapiens (Human), UniProt P06730)?
> 7.30

Record Cc1nc2cnc(N(C)C3CCN(C)C(C(F)F)C3)c(C#N)c2c(=O)n1CCOc1ccc(Cl)cc1-c1ccnc2c(C(=O)O)csc12 (stereo not shown) : what is its pIC50 with recombinant eIF4E (Homo sapiens (Human), UniProt P06730)?
> 7.30

Record `N#Cc1cc(C(F)(F)F)cc2nc(C#N)n(CCOc3ccc(Cl)cc3-c3cccc(C(=O)O)c3)c(=O)c12` : what is its pIC50 with recombinant eIF4E (Homo sapiens (Human), UniProt P06730)?
6.00 to 7.30

Record `Cc1nc2c(N3CCN(CCCC(F)(F)F)CC3)ncc(C#N)c2c(=O)n1CCOc1ccc(Cl)cc1-c1ccnc2c(C(=O)O)csc12` : what is its pIC50 with recombinant eIF4E (Homo sapiens (Human), UniProt P06730)?
> 7.30

Record `Cc1cc(-c2cc(Cl)ccc2OCCn2c(C)nc3cc(C(F)(F)F)c(-c4cnc(C(F)F)cn4)c(C#N)c3c2=O)c2scc(C(=O)O)c2n1` : what is its pIC50 with recombinant eIF4E (Homo sapiens (Human), UniProt P06730)?
> 7.30

Record `Cc1cc(-c2cc(Cl)ccc2OCCn2c(C)nc3cc(C(F)(F)F)c(-c4nn(C)cc4C)c(C#N)c3c2=O)c2scc(C(=O)O)c2n1` : what is its pIC50 with recombinant eIF4E (Homo sapiens (Human), UniProt P06730)?
> 7.30

Record `Cc1cc(-c2cc(Cl)ccc2OCCn2c(C)nc3cnc(N(C)CC(F)(F)F)c(C#N)c3c2=O)c2scc(C(=O)O)c2n1` : what is its pIC50 with recombinant eIF4E (Homo sapiens (Human), UniProt P06730)?
6.00 to 7.30

Record `Cc1nc2cncc(OCCN(C)C)c2c(=O)n1CCOc1ccc(Cl)cc1-c1ccnc2c(C(=O)O)csc12` : what is its pIC50 with recombinant eIF4E (Homo sapiens (Human), UniProt P06730)?
6.00 to 7.30

Record `Cc1nc2cnc(N(C)C3CCN(C4CC4)CC3)c(C#N)c2c(=O)n1CC#Cc1ccc(Cl)cc1-c1ccnc2c(C(=O)O)csc12` : what is its pIC50 with recombinant eIF4E (Homo sapiens (Human), UniProt P06730)?
> 7.30

Record `Cc1cc(-c2cc(Cl)ccc2OCCn2c(C)nc3cc(C(F)(F)F)c(C(C)(C)O)nc3c2=O)c2scc(C(=O)O)c2n1` : what is its pIC50 with recombinant eIF4E (Homo sapiens (Human), UniProt P06730)?
> 7.30

Record `Cc1cc(-c2cc(Cl)ccc2OCCn2c(C)nc3cc(C(F)(F)F)c(-c4ccccn4)c(C#N)c3c2=O)c2sc(C)c(C(=O)O)c2n1` : what is its pIC50 with recombinant eIF4E (Homo sapiens (Human), UniProt P06730)?
> 7.30

Record `COC1CN(c2ncc3nc(C)n(CCOc4ccc(Cl)cc4-c4cc(C)nc5c(C(=O)O)csc45)c(=O)c3c2C#N)C1` : what is its pIC50 with recombinant eIF4E (Homo sapiens (Human), UniProt P06730)?
> 7.30

Record `Cc1nc2cnc(N3CCC(N4CC(OC(F)F)C4)CC3)c(C#N)c2c(=O)n1CC#Cc1ccc(Cl)cc1-c1ccnc2c(C(=O)O)csc12` : what is its pIC50 with recombinant eIF4E (Homo sapiens (Human), UniProt P06730)?
> 7.30
